# Lookup of reported Octet (nm shift) keyed by entry
systemTested: CCR8-NT.MBP (CCR8 N-terminus peptide aa 1-35 fused with maltose binding protein)
experimentNotes: ForteBio Octet, antibody at 10 µg/ml captured on AHC biosensors, 300 nM CCR8-NT.MBP as analyte
Reply numerically in nm, unit not repeated.

binder	quantityMeasured	unitsOfMeasure	resultNumber
7B16.010 (CDR H3 alanine scan variant of 7-B16) (antibody, human IgG1, kappa, V domains shown) VH: EVQLVESGGGLVQPKGSLKLSCAASGFTFNTYAMNWVRQAPGKGLEWVARIRSKSNNYATYYADSVKDRFTISRDDSQSMLYLQMNNLKTEDTAMYYCVRGLLRYRAFDVWGAGTTVTVSS VL: DIVMTQAEPSVPVTPGESISISCRSSKSLLHSNGNTYLYWFLQRPGQSPQLLIYRMSNLASGVPDRFSGSGSGTAFTLRISRVEAEDVGVYYCMQHLEYPFTFGGGTKLEIKR	Octet (nm shift)	nm	0.155

--- query ---
[in] # get_value(readout='Octet (nm shift)', item= 7B16.005 (CDR H3 alanine scan variant of 7-B16) (antibody, human IgG1, kappa, V domains shown) VH: EVQLVESGGGLVQPKGSLKLSCAASGFTFNTYAMNWVRQAPGKGLEWVARIRSKSNNYATYYADSVKDRFTISRDDSQSMLYLQMNNLKTEDTAMYYCVRGALRYRFFDVWGAGTTVTVSS VL: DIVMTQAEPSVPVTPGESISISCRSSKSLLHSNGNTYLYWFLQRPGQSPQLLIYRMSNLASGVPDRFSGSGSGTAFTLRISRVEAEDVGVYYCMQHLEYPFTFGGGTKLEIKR )
[out] 0.296
